Entries and their Percentage of Hsc70 loaded with peptide values follow.
Biological target: recombinant human Hsc70 (Homo sapiens)
Construct: purchased Biomay AG
Sequence (P11142 whole entry): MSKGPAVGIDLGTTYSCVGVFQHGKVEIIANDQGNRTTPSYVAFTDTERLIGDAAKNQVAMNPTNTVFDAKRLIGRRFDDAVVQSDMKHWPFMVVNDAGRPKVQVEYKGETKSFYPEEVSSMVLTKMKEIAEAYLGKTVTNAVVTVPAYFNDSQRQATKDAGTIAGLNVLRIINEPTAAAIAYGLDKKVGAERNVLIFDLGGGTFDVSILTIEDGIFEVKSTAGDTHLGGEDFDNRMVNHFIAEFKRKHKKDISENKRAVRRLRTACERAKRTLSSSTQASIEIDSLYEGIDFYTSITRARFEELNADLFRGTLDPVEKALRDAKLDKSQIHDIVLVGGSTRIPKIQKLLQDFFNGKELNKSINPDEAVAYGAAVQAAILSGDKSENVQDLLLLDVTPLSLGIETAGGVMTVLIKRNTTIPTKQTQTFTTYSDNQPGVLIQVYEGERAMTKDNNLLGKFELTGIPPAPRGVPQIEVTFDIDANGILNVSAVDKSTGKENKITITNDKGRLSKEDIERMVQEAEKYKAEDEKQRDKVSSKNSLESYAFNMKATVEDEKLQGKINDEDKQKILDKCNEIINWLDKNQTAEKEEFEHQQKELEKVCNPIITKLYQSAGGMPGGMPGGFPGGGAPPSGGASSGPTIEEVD
Assay: Hsc70-peptide complex formation by size exclusion chromatography (SEC)
Assay type: binding
Settings: peptide:Hsc70 4:1 molar excess, PBS 37° C. 1 hour
Where no end group is shown, it is not given here. [ ]: non-standard residue; d: D form. pS = N[C@@H](COP(=O)(O)O)C(=O)O

[
  {
    "substance": "NLLRLTGFFRKGLLG{pSer}PVRA (NLLRLTGFFRKGLLG[pS]PVRA) [SEQ ID NO 473]",
    "Percentage of Hsc70 loaded with peptide": "41%"
  },
  {
    "substance": "RVA{pSer}PTSGVFFRKNLLRLTG (RVA[pS]PTSGVFFRKNLLRLTG) [SEQ ID NO 476]",
    "Percentage of Hsc70 loaded with peptide": "75%"
  },
  {
    "substance": "GLLG{pSer}PVRAFFRKNLLRLTG (GLLG[pS]PVRAFFRKNLLRLTG) [SEQ ID NO 474]",
    "Percentage of Hsc70 loaded with peptide": "74%"
  },
  {
    "substance": "NLLRLTGFFRKRVA{pSer}PTSGV (NLLRLTGFFRKRVA[pS]PTSGV) [SEQ ID NO 475]",
    "Percentage of Hsc70 loaded with peptide": "34%"
  }
]
